Data provenance is PubChem BioAssay (NCI).

Examples of molecules with documented TGI follow.
# Test system: HT29 colon
# PROTOCOL: NCI tumour cell line growth inhibition, 48 h

Example molecules with recorded TGI:
MOLECULE: COc1ccc(-c2nc(N3CCN(C(=O)C4CCCCC4)CC3)c3c4c(sc3n2)CCCC4)cc1
TGI: > 100 µM

MOLECULE: CCOC(=O)/C(=C(/C)NCC(C)C)c1cc(O)c(O)c2c(C)cc(=O)[nH]c12
TGI: > 100 µM

MOLECULE: Cc1ccc(C)c2c1CC(Cc1ccccc1C(=O)O)C2=O (stereo unspecified)
TGI: > 100 µM

MOLECULE: O=[N+]([O-])c1cc(Cl)cc2cc(Br)cnc12
TGI: > 31.6 µM

MOLECULE: Cc1ccc(/C=C2\Cc3cccc(C)c3C2=O)c(C(=O)O)c1
TGI: > 100 µM

Now let's try a different one.
Check the records and state TGI for `CC[C@@H]1C[C@H]2CC3c4[nH]c5ccc(O)cc5c4CCN(C2)C31`
> 100 µM

* * *

# Tested on: KM12 colon
# PROTOCOL: NCI tumour cell line growth inhibition, 48 h
MEASURED_PROPERTY: TGI

SMILES_DATA: C=C(CN1CCN(c2cccc(C(F)(F)F)n2)CC1)c1ccc(C(=S)Nc2ccccc2N)cc1
SYSTEM: KM12 colon
MEASURED_PROPERTY: TGI
MEASUREMENT: > 100 µM
//
SMILES_DATA: O=C(NCC(O)CNC(=O)C(F)(F)F)C(F)(F)F
SYSTEM: KM12 colon
MEASURED_PROPERTY: TGI
MEASUREMENT: > 100 µM
//
SMILES_DATA: CCOP(=O)(OCC)[C@H]1OC(C)(C)O[C@@H]1CO
SYSTEM: KM12 colon
MEASURED_PROPERTY: TGI
MEASUREMENT: > 100 µM

Check the records and state TGI for `Br/C(=N\Nc1nn[nH]n1)c1ccncc1`
> 100 µM

* * *

# System: MOLT-4 leukemia
# PROTOCOL: NCI tumour cell line growth inhibition, 48 h
Examples of molecules with documented TGI follow.

Example molecules with recorded TGI:
MOLECULE: CC(=O)O[C@H]1C(=O)[C@@]2(C)[C@H]([C@H](OC(=O)c3ccccc3)[C@]3(O)C[C@H](OC(=O)[C@H](O)[C@@H](NC(=O)C(C)(C)C)c4ccccc4)C(C)=C1C3(C)C)[C@]1(OC(C)=O)CO[C@@H]1C[C@@H]2O
TGI: > 8.96 µM
//
MOLECULE: Cn1c2c3ccc(Cl)cc3nc-2c(Cl)c2ccccc21
TGI: > 100 µM
//
MOLECULE: O=c1oc(=O)c2oc3ccccc3oc1=2
TGI: > 100 µM
//
MOLECULE: O=c1c2cc([N+](=O)[O-])ccc2nc2n1CCCCC2
TGI: > 100 µM
//
MOLECULE: O=C(NCc1ccncc1)C12CC3CC(C1)CC(c1ccc(Cl)cc1)(C3)C2
TGI: 27.2 µM
//
MOLECULE: CCc1ccc2c(c1)N(CCO)C1=C(C(=O)OC1)C2c1cccc(Cl)c1 (stereo not given)
TGI: 48.5 µM

Check the records and state TGI for `Clc1ccc(-c2ccc(-c3nn4c(CNc5ccccc5)nnc4s3)o2)c(Cl)c1`
> 100 µM

Check the records and state TGI for `S=C(N/N=C(/c1ccccc1)c1ccccn1)N1CCCCCC1`
0.00191 µM

Check the records and state TGI for `Cc1cc(-c2nc3ccc(F)cc3s2)ccc1N`
> 100 µM

Check the records and state TGI for O=S(=O)(c1ccccc1)C1(CCC2OCCO2)C=CC2(CC1)OCCO2 (stereo not given)
> 100 µM

* * *

# Test system: T-47D breast
# PROTOCOL: NCI tumour cell line growth inhibition, 48 h
MEASURED_PROPERTY: TGI

Example compounds with recorded TGI:
COMPOUND: COc1ccc(/C(CC2OC(=O)c3ccccc32)=N\NC(=O)C[N+](C)(C)C)cc1 (centres undefined)
MEASUREMENT: > 100 µM
--
COMPOUND: Cc1ccc(C(=O)OCC(C)C)cc1N=NN(C)C
MEASUREMENT: > 100 µM
--
COMPOUND: O=c1[nH]cnc2c1ncn2[C@@H]1C[C@H]1CO
MEASUREMENT: > 100 µM
--
COMPOUND: COc1ccc(OC)c(-c2cc(=O)c3c(OC)c(OC)c(OC)c(OC)c3o2)c1
MEASUREMENT: 21.3 µM
--
COMPOUND: COC(=O)Nc1nc2ccc(NC(=O)c3cccs3)cc2[nH]1
MEASUREMENT: 88.1 µM

Identify measured TGI obtained with T-47D breast for `O=c1c2c3c(sc2nc(N/N=C/c2ccc(Br)cc2)n1Cc1ccccc1)CCCC3` .
> 100 µM

Identify measured TGI obtained with T-47D breast for `O=C(NO)c1ccc(Cn2c(=O)n(-c3ccccc3F)c(=O)c3ccccc32)cc1` .
5.92 µM

* * *

# Test system: MDA-MB-231 breast
# PROTOCOL: NCI tumour cell line growth inhibition, 48 h; in the data active = GI50 below about 0.43 µM; inactive = the rest
Parameter call: string, one of 1.0 = active, 0.0 = inactive

These recorded examples may help you get a feel for the data.
COMPOUND: Cc1ncsc1-c1ccc(CNC(=O)[C@@H]2C[C@@H](O)CN2C(=O)[C@@H](NC(=O)C2(C#N)CC2)C(C)(C)C)cc1
SYSTEM: MDA-MB-231 breast
QUALITATIVE_LABEL: 0.0
//
COMPOUND: COc1ccc(-c2cc(-c3ccc(O)cc3)nc3n[nH]c(N)c23)cc1
SYSTEM: MDA-MB-231 breast
QUALITATIVE_LABEL: 0.0
//
COMPOUND: Cc1cn2c(/C=N/N=C(N)N)c(-c3cccnc3)nc2s1
SYSTEM: MDA-MB-231 breast
QUALITATIVE_LABEL: 0.0

Which result was noted for this compound in the test: `COc1cc(/C=C/C(=O)c2ccc(NC(=O)CSc3nnc(-c4cc(OC)c(OC)c(OC)c4)n3-c3ccccc3)cc2)cc(OC)c1OC`
0.0

Which result was noted for this compound in the test: O=C1OC(c2ccccc2)(c2cc(Br)c(O)c(Br)c2)c2ccccc21 (stereo not drawn)
0.0

Which result was noted for this compound in the test: `O=C(NCc1ccco1)c1ccc(NC2=C(Cl)C(=O)N(Cc3ccccc3)C2=O)cc1`
0.0

Which result was noted for this compound in the test: `O=S(=O)(Nc1cc(Cl)ccc1Cl)c1ccc(-c2cnc(C3CC3)o2)cc1`
0.0

Which result was noted for this compound in the test: `CCCC(=O)O.CCCC(=O)O.CCCC(=O)O.CCCC(=O)O.[Rh].[Rh]`
1.0

Which result was noted for this compound in the test: `c1ccc(CN=C(NCc2ccccc2)NCc2ccccc2)cc1`
0.0

Which result was noted for this compound in the test: `COc1cccc2c1c(C1=C(c3cn(C)c4ccccc34)C(=O)NC1=O)cn2C`
0.0

Which result was noted for this compound in the test: `Cc1ccc(-c2nc(N3CCCNCC3)c3oc(-c4ccccc4)nc3n2)cc1`
0.0

Which result was noted for this compound in the test: `COC(=O)/C=C/c1cn(C(C)=O)c2ccc(Br)cc12`
0.0

Which result was noted for this compound in the test: O=C(CCC(C(=O)c1ccccc1)c1ccccc1)c1ccccc1 (stereo not drawn)
0.0

Which result was noted for this compound in the test: COC(=O)[C@H](Cc1ccc(O)cc1)NC(=O)[C@@H](OC)[C@@H]1Cc2cc3cc(OC4CC(OC5CC(O)C(O)C(C)O5)C(O)C(C)O4)c(C)c(O)c3c(O)c2C(=O)[C@H]1OC1CC(OC2CC(OC3CC(C)(O)C(O)C(C)O3)C(O)C(C)O2)C(O)C(C)O1 (stereo partly drawn)
1.0

Which result was noted for this compound in the test: CCN(CC)CCCC(C)N=c1cc(Nc2cc(=NC(C)CCCN(CC)CC)c3cc(OC)ccc3o2)oc2ccc(OC)cc12 (stereo not drawn)
0.0

Which result was noted for this compound in the test: C=C1C(=O)O[C@@H]2C1C[C@@H](O)C(=C)CC/C=C(\C)CCC[C@H](C)[C@H]2OC(C)=O (stereo partly drawn)
0.0

Which result was noted for this compound in the test: CCc1ccc2c(c1)N(CCO)C1=C(C(=O)OC1)C2c1cccc(Cl)c1 (stereo not drawn)
0.0

Which result was noted for this compound in the test: `CCOC(=O)/C(=C(/C)NCC(C)C)c1cc(O)c(O)c2c(C)cc(=O)[nH]c12`
0.0

* * *

Examples of molecules with documented TGI follow.
# Test system: OVCAR-5 ovarian
# PROTOCOL: NCI tumour cell line growth inhibition, 48 h
Expressed in µM, but write only the number.

MOLECULE: c1ccc(C(=NNc2cnc3ccccc3n2)c2ccccn2)cc1
MEASURED_PROPERTY: TGI
MEASUREMENT: 27.1

Check the records and state TGI for CCCCCCCC(=O)OCC1OC(OC)C(NC(=O)N(CCCl)N=O)C(O)C1O (stereo not drawn)
97.5

Check the records and state TGI for `CN(C)CCCCN1c2ccccc2Sc2ccc(C(=O)c3ccccc3)cc21`
13.8

Check the records and state TGI for `COc1ccc2nc3ccccc3c(NCCCN(C)CCCl)c2c1`
3.4
